Target: Muscarinic acetylcholine receptor M2 (Mus musculus)
Sequence (Q9ERZ4 whole entry): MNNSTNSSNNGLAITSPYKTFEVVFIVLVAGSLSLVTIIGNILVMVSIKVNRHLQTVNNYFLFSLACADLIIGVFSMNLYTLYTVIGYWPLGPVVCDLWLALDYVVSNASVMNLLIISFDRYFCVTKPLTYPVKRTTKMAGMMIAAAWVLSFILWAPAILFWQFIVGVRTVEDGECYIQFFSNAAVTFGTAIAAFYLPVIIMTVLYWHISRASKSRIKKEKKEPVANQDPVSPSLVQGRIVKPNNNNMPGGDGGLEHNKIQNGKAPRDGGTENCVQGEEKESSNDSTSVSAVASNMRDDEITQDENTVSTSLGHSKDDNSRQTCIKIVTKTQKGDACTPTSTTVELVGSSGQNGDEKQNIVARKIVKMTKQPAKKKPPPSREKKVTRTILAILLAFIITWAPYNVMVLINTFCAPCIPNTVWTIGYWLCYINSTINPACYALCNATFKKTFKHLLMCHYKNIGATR
Experiment: Ability to displace [3H]oxotremorine ([3H]OXO-M) from mouse cerebral cortex
Format: tissue-based
Quantity measured: Ki (nM)
State the answer as a number, implicitly in nM.

Query block: I would be grateful if you could share the reported Ki for C[N+](C)(C)CCOC(N)=O .
Result block: 8

// data source = ChEMBL document CHEMBL1125532
